Tested on: HEK-293T
Assay summary: Multiplex assay against HEK293T
Format: toxicity, cell-based
Conditions: human, 12 h, 10 µM, compound concentration 10 uM
Readout type: Population Fragmented Nuclei (%)
One number for each entry, in %.

See these solved cases before continuing.
>>> print(df.to_string())
                      smiles_representation  quantitative_readout
0  Cc1cnc(-c2cc(N3CCN(C(=O)CCS(C)(=O)=O)CC3)ncc2Cl)c(C)c1                     7
1  Cn1cc(C(=O)OCC2CCN(CCNS(C)(=O)=O)CC2)c2ccccc21                    10

Kindly give each listed record's Population Fragmented Nuclei (%).
1. Cc1cc(NC(=O)NCCN2CCC(O)(Cc3ccccc3)CC2)c2ccccc2n1
2. CCCCC[C@H](O)/C=C/[C@H]1[C@H](O)CC(=O)[C@@H]1CCCCCCC(=O)O
3. CN(C)C(=O)Cn1cc(-c2ccc(-c3cncc4ccccc34)cc2)cn1

Solution:
[5, 7, 8]

Population Fragmented Nuclei (%) reading for "CC(C)(C)c1cc(NC(=O)Nc2ccc(-c3cn4c(n3)sc3cc(OCCN5CCOCC5)ccc34)cc2)no1" : 7

----------
System: U2OS
Assay summary: Multiplex assay against U2OS
Type: toxicity, cell-based
Conditions: human, 48 h, 10 µM, compound concentration 10 uM
For each entry below, report its Population Hoechst High Intensity Objects (%) value.
One number for each entry, in %.

>>> df
                                   compound  quantitative_readout
0  COc1cc(N2CCN(C)CC2)ccc1Nc1nccc(-c2cn(C)c3cnccc23)n1                     0

Dear colleague, could you send me Population Hoechst High Intensity Objects (%) for each of the items below? Thanks.
1. COc1ccc(CC(=O)NC(N/C(=N/C#N)Nc2cccc3ncccc23)C(C)(C)C)cc1OC (stereo not drawn)
2. Cc1cccc(NC(=O)CN2CCC(c3ccccn3)CC2)c1.Cl.Cl
3. NC1=NC(=O)/C(=C2\CCNC(=O)c3[nH]c4ccccc4c32)N1
4. CCCCCN1C(=O)C2(COc3cc4c(cc32)OCO4)c2ccccc21 (stereo not drawn)

Solution:
[0, 3, 0, 0]

Please state Population Hoechst High Intensity Objects (%) for every compound in the list that follows.
1. Cc1ccccc1C(=O)Nc1ccc(C(=O)N2CCCC(N(C)C)c3ccccc32)cc1.Cl (stereo not drawn)
2. CCC(=N\O)/C(C)=C/c1ccc(F)cc1
3. Cc1cc(NC(=O)NCCN2CCC(O)(Cc3ccccc3)CC2)c2ccccc2n1
4. CCOC(=O)c1c(/C(C#N)=C\N)c2ccc(Cl)c(Cl)c2n1C
5. CCn1c(-c2nonc2N)nc2c(C#CC(C)(C)O)ncc(OCC3CCCNC3)c21 (stereo not drawn)

Solution:
1. 8
2. 0
3. 1
4. 0
5. 0

----------
System: U2OS
Assay summary: Multiplex assay against U2OS
Assay type: toxicity, cell-based
Conditions: human, 24 h, 10 µM, compound concentration 10 uM
Readout type: Population Hoechst High Intensity Objects (%)
# number then unit; no other words

The following compounds have reported results that may help.
>>> df
                                   compound  result
0  Cc1c(C(=O)NCCCN(C)C)sc2ncnc(Nc3ccc(F)cc3OC(C)CF)c12 (stereo not given)      0%
1  COc1ccc(CC(=O)NC(N/C(=N/C#N)Nc2cccc3ncccc23)C(C)(C)C)cc1OC (stereo not given)      0%
2  O=C(O)C(F)(F)F.O=C1NC(=O)/C(=C/c2c[nH]c(=O)c(-c3ccc(N4CCNCC4)nc3)c2)S1      0%
3  CC(C)(C)c1cc(C(C)(C)C)c(NC(=O)c2c[nH]c3ccccc3c2=O)cc1O [IVACAFTOR]      0%
4  CCCCCN1C(=O)C2(COc3cc4c(cc32)OCO4)c2ccccc21 (stereo not given)      0%
5      CCC(=N\O)/C(C)=C/c1ccc(F)cc1 [A-079]      0%
6  CCc1cc2cc(NS(=O)(=O)c3ccc(C#N)cc3)ccc2n(CC)c1=O      3%
7  CN1[C@@H](CC(=O)c2ccccc2)CCC[C@H]1C[C@H](O)c1ccccc1.Cl [LOBELINE HYDROCHLORIDE]      0%
8  CC(N)C1CCC(C(=O)Nc2ccncc2)CC1 (stereo not given)      0%

Attention now turns to another entry.
Value sought: Population Hoechst High Intensity Objects (%), system U2OS, item Cl.Cl.OCCOCCN1CCN(C(c2ccccc2)c2ccc(Cl)cc2)CC1 (stereo not given) [HYDROXYZINE HYDROCHLORIDE] . Result: 2%

----------
Tested on: Fibroblast
Assay summary: Multiplex assay against human fibroblast
Type: toxicity, cell-based
Conditions: 48 h, 1 µM, compound concentration 1 uM
Could you please report measured Population Hoechst High Intensity Objects (%) for the items listed next?
Answers are plain numbers, in %.

In [3]: df
Out[3]:
                                   compound  study_system  quantitative_readout
0  COc1cc(N2CCN(C)CC2)ccc1Nc1nccc(-c2cn(C)c3cnccc23)n1    Fibroblast                     0
1  Cc1c(-c2cc(-c3ccccc3Cl)no2)cnn1C1CCNCC1.Cl    Fibroblast                     0
2  Cc1ccccc1C(=O)Nc1ccc(C(=O)N2CCCC(N(C)C)c3ccccc32)cc1.Cl (centres undefined)    Fibroblast                     3
3              CCC(=N\O)/C(C)=C/c1ccc(F)cc1    Fibroblast                     0

Quick request: Population Hoechst High Intensity Objects (%) for each listed item, please.
1. O=C(O)C(F)(F)F.O=C1NC(=O)/C(=C/c2c[nH]c(=O)c(-c3ccc(N4CCNCC4)nc3)c2)S1
2. CC(C)(C)c1cc(C(C)(C)C)c(NC(=O)c2c[nH]c3ccccc3c2=O)cc1O

Solution:
[0, 0]

----------
System: U2OS
Assay summary: Multiplex assay against U2OS
Assay type: toxicity, cell-based
Conditions: human, 24 h, 10 µM, compound concentration 10 uM
Readout type: Population Mitochondria Different-Phenotype (%)
// return the numeric value with its unit appended

Here is how some molecules turned out for Population Mitochondria Different-Phenotype (%).
>>> df
                      smiles_representation  study_system  result
0  CC(C)C[C@H](CO)Nc1nc(S[C@@H](C)c2ccccc2)nc2nc(N)sc12          U2OS     12%
1  CC[C@@H](C)Nc1nc(C)nc2c(-c3ccc(OC)nc3C)c(C)nn12          U2OS      3%
2  CCCCC1=NC2(CCCC2)C(=O)N1Cc1ccc(-c2ccccc2-c2nnn[nH]2)cc1          U2OS      3%
3  COC(c1ccccc1)(c1ccccc1)[C@H](Oc1nc(C)cc(C)n1)C(=O)O          U2OS      2%
4  CCc1cc2cc(NS(=O)(=O)c3ccc(C#N)cc3)ccc2n(CC)c1=O          U2OS      2%

The molecule identified as "O=C1NC(NC23CC4CC(CC(C4)C2)C3)=N/C1=C\c1ccc2ncsc2c1" registered its Population Mitochondria Different-Phenotype (%) at 0%

----------
Tested on: U2OS
Assay summary: Multiplex assay against U2OS
Type: toxicity, cell-based
Conditions: human, 24 h, 1 µM, compound concentration 1 uM
Readout type: Population Hoechst High Intensity Objects (%)
One number for each entry, in %.

In [3]: df
Out[3]:
                                   molecule  u  quantitative_readout
0             CC(C)(c1ccc(O)cc1)c1ccc(O)cc1  %                     0
1  COc1cc(N2CCN(C)CC2)ccc1Nc1nccc(-c2cn(C)c3cnccc23)n1  %                     0
2  Oc1c(CN2CCN(c3ccccn3)CC2)cc(Cl)c2cccnc12  %                     1
3  CN1[C@@H](CC(=O)c2ccccc2)CCC[C@H]1C[C@H](O)c1ccccc1.Cl [LOBELINE HYDROCHLORIDE]  %                     0

Quick batch: Population Hoechst High Intensity Objects (%) for everything below.
1. C[C@H](NC(=O)CNC(=O)c1cccc(Cl)c1)c1ccccc1
2. COc1cc(OC2CCN(C(C)=O)CC2)ccc1C(=O)N1CCC(N2C(=O)OCc3ccccc32)CC1

Solution:
[2, 1]

----------
Tested on: U2OS
Assay summary: Multiplex assay against U2OS
Type: toxicity, cell-based
Conditions: human, 48 h, 10 µM, compound concentration 10 uM
Note to self: use Criterion met only for Population Mitochondria Different-Phenotype (%) readings below 1%; a reading exactly at 1% still gets Criterion not met.

                                   compound        class_label
0  CC(C)(C)c1cc(NC(=O)Nc2ccc(-c3cn4c(n3)sc3cc(OCCN5CCOCC5)ccc34)cc2)no1 [QUIZARTINIB]  Criterion not met
1  Cc1ccc(/C(=C\CN2CCCC2)c2ccccn2)cc1 [TRIPROLIDINE]  Criterion not met
2              CCn1c(-c2ccncc2)cc2c1CCNC2=O      Criterion met

Exercise: Population Mitochondria Different-Phenotype (%) strictly < 1% for this compound? "Nc1nc(-c2ccco2)c2cnn(Cc3ccccc3F)c2n1"
Solution: Criterion not met
